- tgt: Alpha-1B adrenergic receptor (Homo sapiens, UniProt P35368)
- Sequence (P35368 whole entry): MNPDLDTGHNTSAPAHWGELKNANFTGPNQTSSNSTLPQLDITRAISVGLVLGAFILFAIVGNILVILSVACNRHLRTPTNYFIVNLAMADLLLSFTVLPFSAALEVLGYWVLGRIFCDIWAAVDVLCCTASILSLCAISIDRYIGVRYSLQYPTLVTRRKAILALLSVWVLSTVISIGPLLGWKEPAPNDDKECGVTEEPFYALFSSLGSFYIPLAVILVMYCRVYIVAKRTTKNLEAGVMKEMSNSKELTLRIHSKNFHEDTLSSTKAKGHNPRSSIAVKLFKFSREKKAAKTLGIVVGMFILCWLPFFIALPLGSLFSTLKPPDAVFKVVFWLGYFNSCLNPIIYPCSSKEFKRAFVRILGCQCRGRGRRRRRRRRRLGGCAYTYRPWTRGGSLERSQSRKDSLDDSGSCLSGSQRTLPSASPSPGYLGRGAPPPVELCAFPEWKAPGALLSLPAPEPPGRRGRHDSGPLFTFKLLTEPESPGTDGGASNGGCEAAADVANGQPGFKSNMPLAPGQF
- testProtocol: Compound was tested for its binding affinity utilizing cloned receptor binding assays by using [125 I]HEAT as radioligand to the human Alpha-1B adrenergic receptor (n >= 2)
outcomeMeasure: pKi
pKi (log units): -log10 of the concentration in mol/L.

*Q* I would be grateful if you could share the reported pKi for COc1ccccc1N1CCN(CCN2C(=O)CC3(CCCC3)CC2=O)CC1 .
*A* 6.72
